Reference source: PubChem BioAssay (NCATS)

target: Rap guanine nucleotide exchange factor 4 (Homo sapiens) (UniProt Q8WZA2); assay: Confirmatory qHTS for antagonist of cAMP-regulated guanine nucleotide exchange factor 4 (EPAC2) (AID 1645885); conditions: EPAC2 Rap1B-BODIPY-GDP exchange fluorescence, biochemical; series mostly up to 12.7 µM; further: nearly all actives have a fitted effect of over 25% in size
Sequence (Q8WZA2 whole entry, looked up): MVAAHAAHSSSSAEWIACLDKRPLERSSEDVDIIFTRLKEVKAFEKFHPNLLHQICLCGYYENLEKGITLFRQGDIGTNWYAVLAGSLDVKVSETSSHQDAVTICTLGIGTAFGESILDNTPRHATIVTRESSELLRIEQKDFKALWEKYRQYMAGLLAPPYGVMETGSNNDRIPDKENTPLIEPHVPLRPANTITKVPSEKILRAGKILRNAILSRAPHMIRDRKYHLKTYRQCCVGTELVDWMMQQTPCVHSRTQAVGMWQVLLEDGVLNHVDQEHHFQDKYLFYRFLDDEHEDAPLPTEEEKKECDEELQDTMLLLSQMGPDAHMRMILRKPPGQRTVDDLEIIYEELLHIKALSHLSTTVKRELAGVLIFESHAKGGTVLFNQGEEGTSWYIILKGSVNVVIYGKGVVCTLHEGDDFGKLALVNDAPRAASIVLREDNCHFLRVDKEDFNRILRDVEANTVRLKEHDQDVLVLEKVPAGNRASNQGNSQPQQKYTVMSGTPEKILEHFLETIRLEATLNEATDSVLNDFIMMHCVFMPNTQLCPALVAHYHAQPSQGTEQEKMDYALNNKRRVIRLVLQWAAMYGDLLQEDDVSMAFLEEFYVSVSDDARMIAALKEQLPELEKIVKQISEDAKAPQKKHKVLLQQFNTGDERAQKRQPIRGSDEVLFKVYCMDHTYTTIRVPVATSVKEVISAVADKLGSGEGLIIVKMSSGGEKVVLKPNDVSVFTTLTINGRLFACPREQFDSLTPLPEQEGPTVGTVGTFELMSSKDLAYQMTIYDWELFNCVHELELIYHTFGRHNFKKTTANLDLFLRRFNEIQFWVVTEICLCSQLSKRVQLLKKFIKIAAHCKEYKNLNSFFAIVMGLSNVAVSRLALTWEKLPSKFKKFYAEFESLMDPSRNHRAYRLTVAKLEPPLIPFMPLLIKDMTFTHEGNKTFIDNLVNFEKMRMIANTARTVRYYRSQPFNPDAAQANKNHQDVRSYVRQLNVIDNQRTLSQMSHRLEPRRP
Results filed as inconclusive are left out. Active and inactive are the calls of the source. The call rests on the fitted dose curve; in most records, active means well fitted inhibition curve with a large enough effect; inconclusive means small, poorly fitted or top-dose-only effect; inactive means no such curve, though single readings can be large or run the other way.
Possible outcomes: active, inactive

>>> class("C[C@H]1CN([C@@H](C)CO)C(=O)c2cccc(NS(=O)(=O)c3ccc(Cl)cc3)c2O[C@@H]1CN(C)CC1CCCCC1")
"inactive"
>>> class("CC(=N\\NC(=O)c1ccccc1)/C(=N/O)C(=O)Nc1ccccc1")
"inactive"
>>> class("CCOC(=O)c1c(CC(C)C)csc1N")
"inactive"
>>> class("CCOC(=O)N1CCN(C(=O)CSc2nnc(Cc3ccccc3)o2)CC1")
"inactive"
>>> class("COc1cc(C(=O)N(Cc2cc3ccc(C)cc3nc2N(C)C)C2CC2)cc(OC)c1OC")
"active"
>>> class("Cc1cccc(NC(=O)CN2C(=O)S/C(=C\\c3ccc(O)c([N+](=O)[O-])c3)C2=O)c1")
"inactive"
>>> class("COc1cc(OC)c(CNC2CCCCCC2)cc1Br")
"inactive"
>>> class("Cc1ccc(N(Cc2cccs2)C(=O)c2ccccc2)cc1")
"inactive"
>>> class("Cc1cc(-c2csc(N)n2)c(C)n1CCC(C)C")
"inactive"
>>> class("CCOc1ccc(C(=O)NCC(=O)NCC(c2ccco2)N2CCCCC2)cc1OCC (stereo not given)")
"inactive"
